Where do these numbers come from? They come from PubChem BioAssay AID2060487.

test system: 997537-175-T-J1-PDC complex spheroid viability; test: Anticancer human tumor 997537-175-T-J1-PDC patient-derived colon adenocarcinoma cell line growth inhibition [GQUAD]; conditions: second compound 0.0316 µM; first compound 0.1 µM; stronger effect = lower value
ASSAY ENDPOINT: viability, T/C (%)
Numbers only here, please. The scale is %.

# annotated cases, reported viability, T/C shown
COMPOUND	MEASURED ON	OUTPUT UNIT	viability, T/C
CC1COCCN1c1cc(C2(S(C)(=N)=O)CC2)nc(-c2ccnc3[nH]ccc23)n1 (stereo not given) + Cc1[nH]c2ccc(F)cc2c1-c1nc2c3cccnc3c3ncccc3c2[nH]1	997537-175-T-J1-PDC complex spheroid viability	%	83.8
COc1ncnc(C2CC2)c1-c1ncc2cnn(Cc3ccc(-c4nc(C(F)(F)F)cn4C(C)C)cc3)c2n1 + CN(C)c1ccc(Nc2c3ccc(NC(=O)CCN4CCCC4)cc3nc3cc(NC(=O)CCN4CCCC4)ccc23)cc1	997537-175-T-J1-PDC complex spheroid viability	%	88.7
CCCS(=O)(=O)Nc1ccc(F)c(C(=O)c2c[nH]c3ncc(-c4ccc(Cl)cc4)cc23)c1F + CN(C)c1ccc(Nc2c3ccc(NC(=O)CCN4CCCC4)cc3nc3cc(NC(=O)CCN4CCCC4)ccc23)cc1	997537-175-T-J1-PDC complex spheroid viability	%	75.3
C=CC(=O)N1CCN(c2nc(=O)n(-c3c(C)ccnc3C(C)C)c3nc(-c4c(O)cccc4F)c(F)cc23)C(C)C1 (stereo not given) + CN(C)c1ccc(Nc2c3ccc(NC(=O)CCN4CCCC4)cc3nc3cc(NC(=O)CCN4CCCC4)ccc23)cc1	997537-175-T-J1-PDC complex spheroid viability	%	99.2

Switching to the query record.
Query :: // fetch viability, T/C given entry C=CCn1c(=O)c2cnc(Nc3ccc(N4CCN(C)CC4)cc3)nc2n1-c1cccc(C(C)(C)O)n1 + CN(C)c1ccc(Nc2c3ccc(NC(=O)CCN4CCCC4)cc3nc3cc(NC(=O)CCN4CCCC4)ccc23)cc1
Result :: 93

###

test system: 997537-175-T-J1-PDC complex spheroid viability; assay: Anticancer human tumor 997537-175-T-J1-PDC cell line growth inhibition [GQUAD]; settings: second compound 0.1 µM; first compound 0.00316 µM; stronger effect = lower value;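 further: spheroids exposed to the agents for 7 days; 100% = DMSO vehicle control viability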
Mark t only when viability, T/C stays strictly below 80%. Values equal to the cut-off are f.

Here are 3 compounds together with their reported answers.
COMPOUND	ASSIGNED LABEL
Cc1[nH]c2ccccc2c1CCNCc1ccc(/C=C/C(=O)NO)cc1 + CN(C)c1ccc(Nc2c3ccc(NC(=O)CCN4CCCC4)cc3nc3cc(NC(=O)CCN4CCCC4)ccc23)cc1	f
CCc1c2c(nc3ccc(O)cc13)-c1cc3c(c(=O)n1C2)COC(=O)[C@]3(O)CC + Cc1[nH]c2ccc(F)cc2c1-c1nc2c3cccnc3c3ncccc3c2[nH]1	t
Cn1ncnc1[C@H]1c2n[nH]c(=O)c3cc(F)cc(c23)N[C@@H]1c1ccc(F)cc1 + Cc1[nH]c2ccc(F)cc2c1-c1nc2c3cccnc3c3ncccc3c2[nH]1	f

Query :: Quick check: viability, T/C of CC[C@@]1(O)C(=O)OCc2c1cc1n(c2=O)Cc2cc3c(CN(C)C)c(O)ccc3nc2-1 + Cc1[nH]c2ccc(F)cc2c1-c1nc2c3cccnc3c3ncccc3c2[nH]1 under 80%?
Result :: f

Query :: I'd appreciate it if you could check whether CC[C@@]1(O)C(=O)OCc2c1cc1n(c2=O)Cc2cc3c(CN(C)C)c(O)ccc3nc2-1 + Cc1cnc(CNC(=O)c2c(=O)c3ccc(N4CCCN(C)CC4)nc3n3c2sc2ccccc23)cn1 has viability, T/C smaller than 80%.
Result :: f

###

tested on: 997537-175-T-J1-PDC complex spheroid viability; assay: Anticancer human tumor 997537-175-T-J1-PDC cell line growth inhibition [GQUAD]; conditions: second compound 0.1 µM; first compound 0.00999 µM; stronger effect = lower value;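 further: spheroids exposed to the agents for 7 days; 100% = DMSO vehicle control viability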
ASSAY ENDPOINT: viability, T/C (%)
The response must be a number in % with no trailing unit.

COMPOUND	OUTPUT UNIT	viability, T/C
CCc1c2c(nc3ccc(O)cc13)-c1cc3c(c(=O)n1C2)COC(=O)[C@]3(O)CC + CN(C)c1ccc(Nc2c3ccc(NC(=O)CCN4CCCC4)cc3nc3cc(NC(=O)CCN4CCCC4)ccc23)cc1	%	50.6
Cn1ncnc1[C@H]1c2n[nH]c(=O)c3cc(F)cc(c23)N[C@@H]1c1ccc(F)cc1 + Cc1cnc(CNC(=O)c2c(=O)c3ccc(N4CCCN(C)CC4)nc3n3c2sc2ccccc23)cn1	%	106

Query :: Assign viability, T/C to the following record: CC[C@@]1(O)C(=O)OCc2c1cc1n(c2=O)Cc2cc3c(CN(C)C)c(O)ccc3nc2-1 + CN(C)c1ccc(Nc2c3ccc(NC(=O)CCN4CCCC4)cc3nc3cc(NC(=O)CCN4CCCC4)ccc23)cc1
Result :: 92.3

###

Recorded measurements of viability, T/C, one per entry
tested on: 997537-175-T-J1-PDC complex spheroid viability; assay: Anticancer human tumor 997537-175-T-J1-PDC cell line growth inhibition [GQUAD]; settings: second compound 0.0316 µM; first compound 0.1 µM; stronger effect = lower value;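 further: spheroids exposed to the agents for 7 days; 100% = DMSO vehicle control viability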
Report the value in % with no unit label.

Consider the worked cases shown below.
COMPOUND	OUTPUT UNIT	viability, T/C
COc1cc(C2c3cc4c(cc3C(OC3OC5COC(C)OC5C(O)C3O)C3COC(=O)C23)OCO4)cc(OC)c1O (stereo not given) + CN(C)c1ccc(Nc2c3ccc(NC(=O)CCN4CCCC4)cc3nc3cc(NC(=O)CCN4CCCC4)ccc23)cc1	%	105
COc1cc(C2c3cc4c(cc3C(OC3OC5COC(C)OC5C(O)C3O)C3COC(=O)C23)OCO4)cc(OC)c1O (stereo not given) + Cc1[nH]c2ccc(F)cc2c1-c1nc2c3cccnc3c3ncccc3c2[nH]1	%	90
CC1COCCN1c1cc(C2(O)CC3CCC(C2)O3)c2cnn(-c3ccn[nH]3)c2n1 (stereo not given) + Cc1cnc(CNC(=O)c2c(=O)c3ccc(N4CCCN(C)CC4)nc3n3c2sc2ccccc23)cn1	%	52.9
Nc1ccn(C2OC(CO)C(O)C2(F)F)c(=O)n1 (stereo not given) + Cc1cnc(CNC(=O)c2c(=O)c3ccc(N4CCCN(C)CC4)nc3n3c2sc2ccccc23)cn1	%	99.5

Query :: Quote viability, T/C reported for CC1COCCN1c1cc(C2(S(C)(=N)=O)CC2)nc(-c2ccnc3[nH]ccc23)n1 (stereo not given) + Cc1cnc(CNC(=O)c2c(=O)c3ccc(N4CCCN(C)CC4)nc3n3c2sc2ccccc23)cn1 please.
Result :: 88.9

###

tested on: 997537-175-T-J1-PDC complex spheroid viability; assay: Anticancer human tumor 997537-175-T-J1-PDC cell line growth inhibition [GQUAD]; conditions: second compound 0.1 µM; first compound 0.00999 µM; stronger effect = lower value;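 further: spheroids exposed to the agents for 7 days; 100% = DMSO vehicle control viability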
Cut-off 90% on viability, T/C: below means TRUE, at or above means FALSE.

MOLECULE	ASSIGNED LABEL
CC[C@@]1(O)C(=O)OCc2c1cc1n(c2=O)Cc2cc3c(CN(C)C)c(O)ccc3nc2-1 + Cc1cnc(CNC(=O)c2c(=O)c3ccc(N4CCCN(C)CC4)nc3n3c2sc2ccccc23)cn1	FALSE
Cn1ncnc1[C@H]1c2n[nH]c(=O)c3cc(F)cc(c23)N[C@@H]1c1ccc(F)cc1 + Cc1[nH]c2ccc(F)cc2c1-c1nc2c3cccnc3c3ncccc3c2[nH]1	TRUE
CCc1c2c(nc3ccc(O)cc13)-c1cc3c(c(=O)n1C2)COC(=O)[C@]3(O)CC + Cc1[nH]c2ccc(F)cc2c1-c1nc2c3cccnc3c3ncccc3c2[nH]1	TRUE
Cc1[nH]c2ccccc2c1CCNCc1ccc(/C=C/C(=O)NO)cc1 + CN(C)c1ccc(Nc2c3ccc(NC(=O)CCN4CCCC4)cc3nc3cc(NC(=O)CCN4CCCC4)ccc23)cc1	TRUE

Query :: Please state whether viability, T/C is below 90% for CC[C@@]1(O)C(=O)OCc2c1cc1n(c2=O)Cc2cc3c(CN(C)C)c(O)ccc3nc2-1 + Cc1[nH]c2ccc(F)cc2c1-c1nc2c3cccnc3c3ncccc3c2[nH]1
Result :: TRUE

Query :: State whether 90% exceeds viability, T/C recorded for CCc1c2c(nc3ccc(O)cc13)-c1cc3c(c(=O)n1C2)COC(=O)[C@]3(O)CC + Cc1cnc(CNC(=O)c2c(=O)c3ccc(N4CCCN(C)CC4)nc3n3c2sc2ccccc23)cn1 .
Result :: TRUE

Query :: Quick check: viability, T/C of Cc1[nH]c2ccccc2c1CCNCc1ccc(/C=C/C(=O)NO)cc1 + Cc1[nH]c2ccc(F)cc2c1-c1nc2c3cccnc3c3ncccc3c2[nH]1 under 90%?
Result :: FALSE
